Details: buffer; pH 7.4; 200.0 µM
// reported solubility kinetic per item
readout label: solubility kinetic (µg/mL)

molecule: CC(=O)c1c(C)nc(Nc2nc3ccccc3s2)nc1C
scale unit: µg/mL
lt gt eq: =
endpoint result: 0.2
//
molecule: CCOc1ccc(C(=O)Nc2cccc3cccnc23)cc1
scale unit: µg/mL
lt gt eq: =
endpoint result: 0.7
//
molecule: Cc1ccccc1-c1noc(CNC(=O)c2ccco2)n1
scale unit: µg/mL
lt gt eq: >
endpoint result: 42.5
//
molecule: O=C(c1ccc(Cl)c(S(=O)(=O)N2CCOCC2)c1)N1CCCC1
scale unit: µg/mL
lt gt eq: >
endpoint result: 53.8
//
molecule: Cc1ccc(N/C=C(\C#N)S(=O)(=O)c2ccccc2)cc1
scale unit: µg/mL
lt gt eq: =
endpoint result: 0.7
//
molecule: COc1ccc(-n2cc(-c3ccccc3)c3c(=S)nc[nH]c32)cc1
scale unit: µg/mL
lt gt eq: =
endpoint result: 0.6
//
molecule: Cc1nc(N=C(N)N)nc2c(C)cccc12
scale unit: µg/mL
lt gt eq: =
endpoint result: 29.8
//
molecule: Nc1nc2c(s1)COc1ccccc1-2
scale unit: µg/mL
lt gt eq: >
endpoint result: 30.6
//
molecule: CC(C)(C)C(=O)Nc1ccc(-c2cn3cccnc3n2)cc1
scale unit: µg/mL
lt gt eq: =
endpoint result: 42.6
//
molecule: CCOC(=O)C1CCCN(C(=O)c2cc3cc(OC)c(OC)cc3[nH]2)C1 (configuration not stated)
scale unit: µg/mL
lt gt eq: =
endpoint result: 17.5
//
molecule: Cc1cccc(C(=O)OC(C)CN2CCOCC2)c1.Cl (configuration not stated)
scale unit: µg/mL
lt gt eq: =
endpoint result: 38.9
//
molecule: Cl.N=c1sccn1Cc1ccccc1F
scale unit: µg/mL
lt gt eq: >
endpoint result: 36.7

---

// reported solubility kinetic per item
Details: buffer; pH 7.4; 200.0 µM

compound: O=C(Nc1csc([N+](=O)[O-])c1)Nc1ccccc1Cl
solubility kinetic: 1 µg/mL
//
compound: C/C(O)=C(\C#N)P(=O)(c1ccccc1)c1ccccc1
solubility kinetic: > 42.5 µg/mL
//
compound: O=C(c1c(F)cccc1F)N1CCC(O)(c2ccc(F)cc2)CC1
solubility kinetic: 49 µg/mL
//
compound: Nc1cccnc1Sc1ccccc1
solubility kinetic: 28 µg/mL
//
compound: O=C(Nc1ccccc1)Nc1nc(-c2ccccc2)cs1
solubility kinetic: < 0.2 µg/mL
//
compound: O=C(Nc1cccnc1Cl)c1cc(-c2ccc(F)cc2)on1
solubility kinetic: < 0.2 µg/mL
//
compound: CC1CCN(CC(=O)N2CCc3ccccc32)CC1
solubility kinetic: 36.9 µg/mL
//
compound: CCCN(CC(=O)Nc1ccccc1C)C(=O)CCl
solubility kinetic: > 42.4 µg/mL
//
compound: CC1(C)SC(=S)N(c2ccccc2)C1/[N+]([O-])=C/c1cccc([N+](=O)[O-])c1 (configuration not stated)
solubility kinetic: 6.2 µg/mL
//
compound: OCCN1CCN(C(c2cccs2)c2ccc3cccnc3c2O)CC1 (configuration not stated)
solubility kinetic: 44 µg/mL
//
compound: CN(C)C(=O)C#Cc1ccccc1
solubility kinetic: > 26 µg/mL
//
compound: COc1ccc2[nH]c(C(=O)N3CCN(Cc4ccccc4)CC3)cc2c1OC
solubility kinetic: 51.8 µg/mL

# credit: PubChem BioAssay AID1996
